Hi there, I'd appreciate the recorded activity, negative = inhibition for every entry that follows.
# system: Cytochrome P450 2C19 (Homo sapiens) (UniProt P33261)
# Sequence (P33261 whole entry, looked up): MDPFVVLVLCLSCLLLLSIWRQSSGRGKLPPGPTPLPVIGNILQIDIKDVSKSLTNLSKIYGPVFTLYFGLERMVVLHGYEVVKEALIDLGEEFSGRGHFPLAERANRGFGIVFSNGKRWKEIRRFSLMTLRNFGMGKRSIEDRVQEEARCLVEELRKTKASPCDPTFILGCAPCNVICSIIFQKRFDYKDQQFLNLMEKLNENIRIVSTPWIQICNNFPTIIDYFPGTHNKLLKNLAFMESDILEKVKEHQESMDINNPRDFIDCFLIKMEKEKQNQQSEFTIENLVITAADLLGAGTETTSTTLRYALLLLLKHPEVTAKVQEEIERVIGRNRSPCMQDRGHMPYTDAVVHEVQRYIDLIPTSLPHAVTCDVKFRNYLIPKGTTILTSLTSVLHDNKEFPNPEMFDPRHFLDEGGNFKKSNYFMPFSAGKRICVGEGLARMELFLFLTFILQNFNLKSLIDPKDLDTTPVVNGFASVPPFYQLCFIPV
# experiment summary: Cytochrome panel assay with activity outcomes; also: % is scaled to controls: 0 for no effect and ±100 for the full control effect
# condition context: recombinant CYP, pro-luciferin dealkylation, luminescence, p450-cyp2c19; series mostly up to 57.1 µM
The campaign covered roughly 16,000 compounds. About 5,800 (36%) were called active. Another 23% or so got no clear call; they are omitted. The list shows a part of the results.

Field: activity, negative = inhibition (Cytochrome P450 2C19 (Homo sapiens) (UniProt P33261)). Entry: `CC(C)=NOCc1ccc(-c2cc(-c3ccccc3)no2)cc1` -13.3% [at 11.4 µM] (inactive)

Okay, and `FC(F)(F)c1cccc(-c2nc3nc(Cl)c(Cl)nc3[nH]2)c1` ? -19.6% [at 11.4 µM] (inactive)

Okay, and `Cc1nnc(S(=O)(=O)c2ccc(N=Nc3c(N)nc(N)nc3N)cc2)s1` ? 32.1% [at 11.4 µM] (inactive)

Okay, and `O=C(O)c1cc(=O)[nH]c(SCc2ccccc2)n1` ? -23.4% [at 11.4 µM] (inactive)

Okay, and `C#CCOCCCC(=O)O` ? 22.8% [at 11.4 µM] (inactive)

Okay, and `CO[C@H]1COC(=O)[C@H]2CCCN2C(=O)C/C=C\[C@@H](C)[C@H](OC)COC(=O)C/C=C\[C@@H]1C` ? 19.4% [at 11.4 µM] (inactive)

Okay, and `Nc1nccc(Nc2ccc(S(N)(=O)=O)cc2)n1` ? -11.8% [at 11.4 µM] (inactive)

Okay, and CN1C[C@H](c2ccccc2)C(O)([C@]2(c3ccccc3)CN(C)C[C@@H](c3ccccc3)C2=O)[C@H](c2ccccc2)C1 (stereo partly specified) ? 7.29% [at 11.4 µM] (inactive)

Okay, and `O=C(CSc1nc2ccc([N+](=O)[O-])cc2s1)c1ccc2ccccc2c1` ? -43.1% [at 11.4 µM] (inactive)

Okay, and `Nc1nc(-c2cc(-c3cccc4ccccc34)nc(N)n2)cc(-c2cccc3ccccc23)n1` ? 11.9% [at 11.4 µM] (inactive)

Okay, and `CCN(CC)CC[n+]1ccc2c(C)c3[nH]c4ccc(O)cc4c3c(C)c2c1` ? 42.4% [at 11.4 µM] (inactive)

Okay, and `CO[C@H]1COC(=O)[C@@H](CCSC)NC(=O)C/C=C\[C@@H](C)[C@H](OC)COC(=O)[C@@H](OCc2ccccc2)/C=C\[C@@H]1C` ? -26% [at 11.4 µM] (inactive)

Okay, and `COc1cc(CN2CCCCC2)cc2cc(C(=O)O)c(=O)oc12` ? 21% [at 11.4 µM] (inactive)

Okay, and `NNC(=O)CNc1cccc(Br)c1` ? -2.2% [at 11.4 µM] (inactive)

Okay, and `N/N=C1/CC(=O)NC(=O)N1` ? -9.46% [at 11.4 µM] (inactive)

Okay, and `O=C(O)c1ccc(CNCc2ccccc2)cc1` ? -4.75% [at 11.4 µM] (inactive)

Okay, and `N[C@@H](Cc1c[nH]c2ccc([N+](=O)[O-])cc12)C(=O)O` ? 34.9% [at 11.4 µM] (inactive)

Okay, and `CC(C)(CO)N1CCN(C(=S)Nc2ccccc2)CC1` ? 4.38% [at 11.4 µM] (inactive)

Okay, and `O=[N+]([O-])c1cc(Cl)cc2c1nc(NCCO)c1ccccc12` ? -34.6% [at 11.4 µM] (inactive)

Okay, and `CC(C)=CCC/C(C)=C/CO/N=C1/C[C@@H](O)[C@@H](O)[C@@H]2[C@@H]3C(=O)N(C[C@@H]4CCCO4)C(=O)[C@H]3CC[C@@H]12` ? 29.8% [at 11.4 µM] (inactive)

Okay, and `Cc1cc(C)c2nc3c(c([C@H](O)[C@@H]4CCCCN4)c2c1)CC/C3=C/c1ccc(Cl)cc1` ? -6.83% [at 11.4 µM] (inactive)
